- assay_info: self-splicing fitness, log relative to wild type (ln ratio); higher = more splicing; Tetrahymena group I intron in knt gene, E. coli kanamycin selection, DiMSum; sequences stand for … in CUCUCU…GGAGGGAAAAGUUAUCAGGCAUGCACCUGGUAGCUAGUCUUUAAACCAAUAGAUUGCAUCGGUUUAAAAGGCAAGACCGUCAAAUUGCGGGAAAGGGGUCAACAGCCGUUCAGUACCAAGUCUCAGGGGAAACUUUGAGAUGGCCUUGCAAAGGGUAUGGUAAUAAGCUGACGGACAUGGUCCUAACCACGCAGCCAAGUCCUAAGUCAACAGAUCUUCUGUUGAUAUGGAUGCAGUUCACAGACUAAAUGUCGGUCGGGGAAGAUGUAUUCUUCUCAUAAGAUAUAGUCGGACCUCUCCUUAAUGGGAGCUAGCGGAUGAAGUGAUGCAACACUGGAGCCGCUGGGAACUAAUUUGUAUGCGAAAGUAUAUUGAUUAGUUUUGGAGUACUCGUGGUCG;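 further: selection with 25 µg/mL kanamycin versus none on LB agar overnight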
- condition_notes: 30 °C
metric_name: self-splicing fitness (ln)

INSERT INTO results (ordered_residues, reading) VALUES
  ('UUGAAGCAAUAUUACGAGCC', -2.69),
  ('GACUAGCAAUAUUACGCGGA', -1.55),
  ('AGGCAGCAAUAUUACGAGCU', -0.501),
  ('UAAGAGCAAUAUUACGGUUG', -3.21),
  ('AGAAAGCAAUAUUACGGAGA', -3),
  ('CAACAGCAAUAUUACGCGAC', -3.56),
  ('ACUAAGCAAUAUUACGCUGC', -2.57),
  ('AACUAGCAAUAUUACGCUAG', -4.12),
  ('GCUGAGCAAUAUUACGGCAU', -2.59),
  ('CGGUAGCAAUAUUACGGACG', -0.708),
  ('UCUGAGCAAUAUUACGUCCU', -1.81),
  ('UAGAAGCAAUAUUACGGCUG', -0.338),
  ('GCAAAGCAAUAUUACGACAG', -3.2),
  ('ACAUAGCAAUAUUACGUCUG', -1.24),
  ('AUACAGCAAUAUUACGUAUA', -3.94),
  ('AACGAGCAAUAUUACGCUCA', -1.83);

====

- assay_info: self-splicing fitness, log relative to wild type (ln ratio); higher = more splicing; Tetrahymena group I intron in knt gene, E. coli kanamycin selection, DiMSum; sequences stand for … in CUCUCU…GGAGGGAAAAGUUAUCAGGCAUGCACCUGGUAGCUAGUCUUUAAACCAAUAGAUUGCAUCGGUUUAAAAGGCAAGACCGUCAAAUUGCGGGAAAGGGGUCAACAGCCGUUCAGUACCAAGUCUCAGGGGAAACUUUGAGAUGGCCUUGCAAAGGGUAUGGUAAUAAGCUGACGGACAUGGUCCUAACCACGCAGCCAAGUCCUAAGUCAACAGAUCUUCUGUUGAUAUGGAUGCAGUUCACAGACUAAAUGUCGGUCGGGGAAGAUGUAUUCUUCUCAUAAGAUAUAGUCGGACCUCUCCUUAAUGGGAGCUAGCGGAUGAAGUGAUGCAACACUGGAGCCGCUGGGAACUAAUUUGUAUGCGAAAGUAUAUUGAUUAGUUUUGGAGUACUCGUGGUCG
- condition_notes: 30 °C
metric_name: self-splicing fitness (ln)

INSERT INTO assay_data (ordered_residues, reading) VALUES
  ('UUGGAGCAAUAUUACGCUUA', -2.03),
  ('CCAGAGCAAUAUUACGACUG', -1.05),
  ('GAUGAGCAAUAUUACGAUCG', -1.9),
  ('GGGUAGCAAUAUUACGUGAG', -0.474),
  ('ACUCAGCAAUAUUACGCCUC', -0.758),
  ('GGUAAGCAAUAUUACGCGUG', -2.42),
  ('GCUAAGCAAUAUUACGAUCC', -0.136),
  ('GCGCAGCAAUAUUACGAUGG', -1.42),
  ('UCUCAGCAAUAUUACGGUGC', -3.17),
  ('CGCGAGCAAUAUUACGCCUU', -2.45),
  ('ACGGAGCAAUAUUACGGGAU', -1.84),
  ('AUUUAGCAAUAUUACGACAG', -2.19),
  ('CCUCAGCAAUAUUACGAAGA', -3.71),
  ('AAGGAGCAAUAUUACGAUUU', -0.545),
  ('CCGAAGCAAUAUUACGCUCU', -3.24),
  ('GUUCAGCAAUAUUACGUAAC', -0.462);
